- STUDY_SYSTEM: nhr-154 (C13C4.2) (Caenorhabditis elegans)
- Sequence: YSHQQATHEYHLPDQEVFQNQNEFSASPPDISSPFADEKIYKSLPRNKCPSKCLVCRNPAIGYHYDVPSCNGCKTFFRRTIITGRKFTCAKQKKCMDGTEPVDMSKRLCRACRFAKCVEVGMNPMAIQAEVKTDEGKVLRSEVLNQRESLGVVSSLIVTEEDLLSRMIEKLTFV
ENDPOINT_NAME: binding signal (PBM E-score (-0.5 to 0.5))
One number for each entry.

1) TGGCGCCA (double strand) [8-mer TGGCGCCA]; 0.474
2) GCGCCAAA (double strand) [8-mer GCGCCAAA]; 0.453
3) GGCGCCAA (double strand) [8-mer GGCGCCAA]; 0.46

Lab note: next sequence to report on.
Please give the measured binding signal (PBM E-score (-0.5 to 0.5)) for this sequence: AGGCGCCA (double strand) [8-mer AGGCGCCA]
0.452

###

Assign binding signal (PBM E-score (-0.5 to 0.5)) to each entry below.
- STUDY_SYSTEM: tbx-43 (Y46E12A.4) (Caenorhabditis elegans)
- Sequence: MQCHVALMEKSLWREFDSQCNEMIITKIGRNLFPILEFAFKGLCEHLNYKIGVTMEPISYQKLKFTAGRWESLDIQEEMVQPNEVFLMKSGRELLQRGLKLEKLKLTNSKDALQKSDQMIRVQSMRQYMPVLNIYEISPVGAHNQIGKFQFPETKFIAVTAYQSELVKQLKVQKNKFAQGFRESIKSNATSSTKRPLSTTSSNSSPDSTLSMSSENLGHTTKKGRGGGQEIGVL
Answers are plain numbers.

1) GGTGTTAA (double strand) [8-mer GGTGTTAA]; 0.492
2) GGTGTCAA (double strand) [8-mer GGTGTCAA]; 0.495
3) AGTGTGAA (double strand) [8-mer AGTGTGAA]; 0.494

Attention now turns to another entry.
Looking for the measured binding signal (PBM E-score (-0.5 to 0.5)) of GGGTGTCA (double strand) [8-mer GGGTGTCA] , can you help?
0.484

###

- STUDY_SYSTEM: atf-5 (T04C10.4) (Caenorhabditis elegans)
- Sequence: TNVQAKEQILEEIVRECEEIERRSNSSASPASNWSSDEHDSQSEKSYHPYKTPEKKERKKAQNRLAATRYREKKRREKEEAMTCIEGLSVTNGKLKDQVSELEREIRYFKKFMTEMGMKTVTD
ENDPOINT_NAME: binding signal (PBM E-score (-0.5 to 0.5))
Numbers only.

Some solved entries appear below for comparison.
1) ACGTCAGC (double strand) [8-mer ACGTCAGC]; 0.491
2) TGACATCA (double strand) [8-mer TGACATCA]; 0.468
3) TGACGTAA (double strand) [8-mer TGACGTAA]; 0.49

For every listed record, write down its binding signal (PBM E-score (-0.5 to 0.5)).
1. AATGACGT (double strand) [8-mer AATGACGT]
2. ATGACGTA (double strand) [8-mer ATGACGTA]
3. TGACGTCA (double strand) [8-mer TGACGTCA]

[0.459, 0.459, 0.5]

###

- STUDY_SYSTEM: dmd-5 (F10C1.5) (Caenorhabditis elegans) (UniProt Q19291)
- Sequence (Q19291 1-125): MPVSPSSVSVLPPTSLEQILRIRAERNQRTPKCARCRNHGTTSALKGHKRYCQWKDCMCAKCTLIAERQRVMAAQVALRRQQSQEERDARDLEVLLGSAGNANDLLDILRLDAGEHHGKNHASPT
ENDPOINT_NAME: binding signal (PBM E-score (-0.5 to 0.5))
Numbers only.

Illustrative cases are given below, each with its answer.
1. ATGTATCA (double strand) [8-mer ATGTATCA]; 0.486
2. ATGTTACA (double strand) [8-mer ATGTTACA]; 0.475
3. ACAGTAAC (double strand) [8-mer ACAGTAAC]; 0.482

I have 5 sequences here; please give me binding signal (PBM E-score (-0.5 to 0.5)) for each one.
1. ACAGTTGC (double strand) [8-mer ACAGTTGC]
2. TGTATCAA (double strand) [8-mer TGTATCAA]
3. ATTGTATC (double strand) [8-mer ATTGTATC]
4. AATTGTTA (double strand) [8-mer AATTGTTA]
5. ACTGTTGC (double strand) [8-mer ACTGTTGC]

[0.489, 0.49, 0.486, 0.478, 0.488]

Batch request: binding signal (PBM E-score (-0.5 to 0.5)) for each of the following sequences.
1. ATTGTAAC (double strand) [8-mer ATTGTAAC]
2. ACTGTATC (double strand) [8-mer ACTGTATC]
3. TGTTACAA (double strand) [8-mer TGTTACAA]

1: 0.481; 2: 0.484; 3: 0.484
